Target: human bradykinin 1 receptor (B1R) (Homo sapiens, UniProt P46663)
Construct: expressed in transfected cells; host or cells: CHO K1 cells
Sequence (P46663 whole entry): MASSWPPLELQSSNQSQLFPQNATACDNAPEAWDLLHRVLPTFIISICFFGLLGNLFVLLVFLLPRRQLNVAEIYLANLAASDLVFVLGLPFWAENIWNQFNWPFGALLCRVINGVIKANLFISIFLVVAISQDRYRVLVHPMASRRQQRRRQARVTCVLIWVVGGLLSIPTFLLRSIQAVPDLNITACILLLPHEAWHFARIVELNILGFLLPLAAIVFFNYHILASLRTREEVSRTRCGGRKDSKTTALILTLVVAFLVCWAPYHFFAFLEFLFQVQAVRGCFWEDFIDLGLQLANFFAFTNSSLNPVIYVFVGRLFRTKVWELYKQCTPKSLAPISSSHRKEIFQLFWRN
Experiment: Functional investigation on the human bradykinin 1 receptor (B1R), Ca2+ FLIPR assay in CHO K1 hB1R cells
Type: cell-based
Settings: CHO-K1, B1R antagonism human; test substance 10 μM; Ca2+ FLIPR, CHO K1 hB1R cells; read-out: B1R Ant. h [10 μM] % Inhibition
assay_readout: inhibition at 10 µM
Give the number first and the unit second.

Completed entries (count: 5):
COc1cc(C)c(S(=O)(=O)N(CCOCC(=O)NCC2CCC(C(c3ccccc3)N(C)C)CC2)Cc2ccccc2)c(C)c1 (centres unmarked)    92%
COc1cc(C)c(S(=O)(=O)N(C)CCOCC(=O)NC2CCC(C(c3ccccc3)N3CCCCC3)CC2)c(C)c1C (centres unmarked)    86%
CCN(CCOCC(=O)NCCC1CCC(C(c2cccs2)N(C)C)CC1)S(=O)(=O)c1c(C)cc(OC)c(C)c1C (centres unmarked)    90%
Cc1ccc(F)cc1-c1noc(C(=O)NCC(=O)NC2CCC(C(CCc3ccccc3)N(C)C)CC2)n1 (centres unmarked)    94%
COc1ccc(S(=O)(=O)N2CCC(OCC(=O)NCC3CCC(C(c4cccc(F)c4)N(C)C)CC3)C2)cc1OC (centres unmarked)    -29%

Note down inhibition at 10 µM recorded for CN(C)C(c1ccccc1)C1CCC(CNC(=O)COCCN(Cc2ccccc2)S(=O)(=O)c2ccccc2)CC1 (centres unmarked)
11%

Note down inhibition at 10 µM recorded for Cc1cc(C)c(S(=O)(=O)N2CCC(OCC(=O)NC3CCC(C(c4cccc(F)c4)N(C)C)CC3)C2)c(C)c1 (centres unmarked)
43%

Note down inhibition at 10 µM recorded for CN(C)C(c1ccccc1)C1CCC(NC(=O)CCNC(=O)c2nc(-c3ccc(Cl)cc3Cl)no2)CC1 (centres unmarked)
20%

###

B1R Ant. h [10 μM] % Inhibition overview
Molecular target: human bradykinin 1 receptor (B1R) (Homo sapiens)
Construct: expressed in transfected cells; host or cells: CHO K1 cells
Assay: Functional investigation on the human bradykinin 1 receptor (B1R), Ca2+ FLIPR assay in CHO K1 hB1R cells
Type: cell-based
Details: B1R antagonism human; test substance 10 μM; Ca2+ FLIPR, CHO K1 hB1R cells
Reply numerically in %, unit not repeated.

COc1ccc(S(=O)(=O)N(C)CCOCC(=O)NCCC2CCC(C(c3ccc(Cl)cc3)N(C)C)CC2)cc1 (stereo not shown)    50
Cc1ccc(S(=O)(=O)N(C)CCOCC(=O)NC2CCC(C(c3ccc(F)cc3)N(C)C)CC2)cc1 (stereo not shown)    0
CN(C)C(c1ccc(F)cc1)C1CCC(CNC(=O)COCCN(Cc2ccccc2)S(=O)(=O)c2ccccc2)CC1 (stereo not shown)    28

Below: the item to evaluate.
Note down B1R Ant. h [10 μM] % Inhibition recorded for CN(C)C(c1ccc(Cl)cc1)C1CCC(CCNC(=O)COC2CCN(S(=O)(=O)c3cccc(C(F)(F)F)c3)C2)CC1 (stereo not shown)
25

###

Biological target: human bradykinin 1 receptor (B1R) (Homo sapiens, UniProt P46663)
Construct: expressed in transfected cells; host or cells: CHO K1 cells
Test: Functional investigation on the human bradykinin 1 receptor (B1R), Ca2+ FLIPR assay in CHO K1 hB1R cells
Format: cell-based
Settings: B1R antagonism human; test substance 10 μM; Ca2+ FLIPR, CHO K1 hB1R cells
Text: Functional Investigation on the Human Bradykinin 1 Receptor (B1R) The agonistic or antagonistic action of substances can be determined on the bradykinin 1 receptor (B1R) of the human species and rats with the following assay. In accordance with this assay, the Ca^2+ inflow through the channel is quantified with the aid of a Ca^2=-sensitive dyestuff (type Fluo-4, Molecular Probes Europe BV, Leiden, Holland) in a fluorescent imaging plate reader (FLIPR, Molecular Devices, Sunnyvale, USA). […]
Returns one of 1 or 0; 1 when B1R Ant. h [10 μM] % Inhibition is >= 50%.

Example entries and their recorded answers appear below.
Cc1ccc(S(=O)(=O)N2CCC(OCC(=O)NCC3CCC(C(CCc4ccccc4)N(C)C)CC3)C2)cc1 (centres unmarked) [Example 538]    0
COc1ccc(S(=O)(=O)N2CCCC2COCC(=O)NCCC2CCC(C(c3ccc(Cl)cc3)N(C)C)CC2)cc1 (centres unmarked) [Example 346]    1
COc1ccc(S(=O)(=O)N2Cc3ccccc3CC2COCC(=O)NCCC2CCC(C(c3ccc(F)cc3)N(C)C)CC2)cc1 (centres unmarked) [Example 389]    0
COc1cc(C)c(S(=O)(=O)N2CCC(OCC(=O)NCCC3CCC(C(c4ccc(Cl)cc4)N(C)C)CC3)C2)c(C)c1 (centres unmarked) [Example 492]    1
COc1cc(C)c(S(=O)(=O)N(C)CCOCC(=O)NCCC2CCC(C(c3ccc(F)cc3)N(C)C)CC2)c(C)c1C (centres unmarked) [Example 354]    1
CN(C)C(c1ccc(F)cc1)C1CCC(NC(=O)COCCN(C)S(=O)(=O)c2ccc(Cl)cc2)CC1 (centres unmarked) [Example 406]    0
COc1ccc(S(=O)(=O)N2Cc3ccccc3CC2COCC(=O)NCC2CCC(C(CCc3ccccc3)N(C)C)CC2)cc1 (centres unmarked) [Example 373]    1
COc1cc(C)c(S(=O)(=O)N2CCC(OCC(=O)NC3CCC(C(c4ccc(F)cc4)N(C)C)CC3)C2)c(C)c1 (centres unmarked) [Example 441]    1
Cc1ccc(S(=O)(=O)N(C)CCOCC(=O)NCCC2CCC(C(c3ccc(Cl)cc3)N(C)C)CC2)cc1 (centres unmarked) [Example 306]    0
COc1cc(C)c(S(=O)(=O)N(C)CCOCC(=O)NCC2CCC(C(c3ccccc3)N(C)C)CC2)c(C)c1C (centres unmarked) [Example 623]    1

Hi team, for CN(C)C(c1ccc(F)cc1)C1CCC(CCNC(=O)COCCN(C)S(=O)(=O)c2cccc(C(F)(F)F)c2)CC1 (centres unmarked) [Example 368] , is the recorded B1R Ant. h [10 μM] % Inhibition at or above 50%?
0

Hi team, for CN(C)C(CCc1ccccc1)C1CCC(CNC(=O)COCCN(C)S(=O)(=O)c2cccc(C(F)(F)F)c2)CC1 (centres unmarked) [Example 556] , is the recorded B1R Ant. h [10 μM] % Inhibition at or above 50%?
1

Hi team, for COc1ccc(S(=O)(=O)N2CCCCC2COCC(=O)NCC2CCC(C(CCc3ccccc3)N(C)C)CC2)cc1OC (centres unmarked) [Example 559] , is the recorded B1R Ant. h [10 μM] % Inhibition at or above 50%?
0

Cited source for all entries: patent US8106055B2
